Test system: PPARg:RXRa 30nM:10nM, anti-RXR (NR concentration 30 nM, RXRa partner concentration 10 nM)
Test: PBM binding z-score (relative to random genomic background probes); higher = stronger binding; sequences stand for … in GC…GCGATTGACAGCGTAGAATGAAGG
Outcome measure: PBM binding z-score
# print the numeric value only

Inquiry: Using known records, supply PBM binding z-score for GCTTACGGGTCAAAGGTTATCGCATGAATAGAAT
Reply text: 8.55

Inquiry: Return the recorded PBM binding z-score value; entry: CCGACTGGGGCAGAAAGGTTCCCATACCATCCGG
Reply text: -0.842

Inquiry: Please list PBM binding z-score recorded for the sequence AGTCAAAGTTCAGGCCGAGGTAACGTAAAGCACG
Reply text: 1.71

Inquiry: Read the entry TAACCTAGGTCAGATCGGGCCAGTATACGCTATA and write its reported PBM binding z-score.
Reply text: 0.906

Inquiry: Please report the measured PBM binding z-score for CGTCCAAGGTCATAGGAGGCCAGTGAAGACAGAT
Reply text: 1.54

Inquiry: Using the record for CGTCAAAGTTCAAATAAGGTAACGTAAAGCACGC , state its measured PBM binding z-score.
Reply text: 2.25

###

Tested on: PPARa:RXRa (NR concentration 270 nM, RXRa partner concentration 90 nM)
Assay: PBM binding z-score (relative to random genomic background probes); higher = stronger binding; sequences stand for … in GC…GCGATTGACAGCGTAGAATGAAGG
Outcome measure: PBM binding z-score
Give a plain numeric answer without units written out.

These recorded examples may help you get a feel for the data.
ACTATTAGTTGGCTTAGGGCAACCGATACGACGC	-0.171
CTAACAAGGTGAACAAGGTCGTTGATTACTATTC	2.7
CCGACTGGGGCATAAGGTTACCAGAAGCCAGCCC	2
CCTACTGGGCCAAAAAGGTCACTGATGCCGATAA	4.64
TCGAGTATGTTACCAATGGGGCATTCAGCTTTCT	0.256
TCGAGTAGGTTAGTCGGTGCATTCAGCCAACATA	0.254
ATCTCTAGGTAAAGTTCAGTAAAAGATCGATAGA	2.18
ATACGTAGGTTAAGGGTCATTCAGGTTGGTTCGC	5.41
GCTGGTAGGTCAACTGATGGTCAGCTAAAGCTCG	4.64

Inquiry: Report measured PBM binding z-score; entry is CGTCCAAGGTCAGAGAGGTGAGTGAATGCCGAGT
Reply text: 4.06

###

Test system: LXRa:RXRa (NR concentration 270 nM, RXRa partner concentration 90 nM)
Assay: PBM binding z-score (relative to random genomic background probes); higher = stronger binding; sequences stand for … in GC…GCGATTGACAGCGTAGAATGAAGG
Outcome measure: PBM binding z-score

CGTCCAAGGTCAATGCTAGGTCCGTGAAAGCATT	4.45

Inquiry: Kindly indicate its recorded PBM binding z-score. Item: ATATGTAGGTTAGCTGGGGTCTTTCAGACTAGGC
Reply text: 0.766

Inquiry: Fill in PBM binding z-score for record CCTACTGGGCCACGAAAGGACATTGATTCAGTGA
Reply text: 0.0312

###

// reported PBM binding z-score for each item listed
Tested on: PXR homodimer (NR concentration 270 nM)
Assay: PBM binding z-score (relative to random genomic background probes); higher = stronger binding; sequences stand for … in GC…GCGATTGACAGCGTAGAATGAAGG
Please reply with the value in numeric form only.

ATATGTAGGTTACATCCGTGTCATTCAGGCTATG	0.202
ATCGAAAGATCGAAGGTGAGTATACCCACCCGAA	-0.598
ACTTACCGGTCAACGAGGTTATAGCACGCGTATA	1.42
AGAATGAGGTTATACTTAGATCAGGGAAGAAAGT	0.666
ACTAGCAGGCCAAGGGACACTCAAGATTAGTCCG	-0.667

Inquiry: Return PBM binding z-score (reported value) for this sequence: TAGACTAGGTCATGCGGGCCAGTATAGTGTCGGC
Reply text: -0.131

Inquiry: Report PBM binding z-score for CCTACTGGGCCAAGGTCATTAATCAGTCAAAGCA
Reply text: 1.21

Inquiry: Name the recorded PBM binding z-score of the item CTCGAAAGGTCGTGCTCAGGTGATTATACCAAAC in your answer.
Reply text: 0.276
